Assayed system: Multidrug resistance protein CDR1 (Candida albicans)
Sequence (P43071 whole entry, looked up): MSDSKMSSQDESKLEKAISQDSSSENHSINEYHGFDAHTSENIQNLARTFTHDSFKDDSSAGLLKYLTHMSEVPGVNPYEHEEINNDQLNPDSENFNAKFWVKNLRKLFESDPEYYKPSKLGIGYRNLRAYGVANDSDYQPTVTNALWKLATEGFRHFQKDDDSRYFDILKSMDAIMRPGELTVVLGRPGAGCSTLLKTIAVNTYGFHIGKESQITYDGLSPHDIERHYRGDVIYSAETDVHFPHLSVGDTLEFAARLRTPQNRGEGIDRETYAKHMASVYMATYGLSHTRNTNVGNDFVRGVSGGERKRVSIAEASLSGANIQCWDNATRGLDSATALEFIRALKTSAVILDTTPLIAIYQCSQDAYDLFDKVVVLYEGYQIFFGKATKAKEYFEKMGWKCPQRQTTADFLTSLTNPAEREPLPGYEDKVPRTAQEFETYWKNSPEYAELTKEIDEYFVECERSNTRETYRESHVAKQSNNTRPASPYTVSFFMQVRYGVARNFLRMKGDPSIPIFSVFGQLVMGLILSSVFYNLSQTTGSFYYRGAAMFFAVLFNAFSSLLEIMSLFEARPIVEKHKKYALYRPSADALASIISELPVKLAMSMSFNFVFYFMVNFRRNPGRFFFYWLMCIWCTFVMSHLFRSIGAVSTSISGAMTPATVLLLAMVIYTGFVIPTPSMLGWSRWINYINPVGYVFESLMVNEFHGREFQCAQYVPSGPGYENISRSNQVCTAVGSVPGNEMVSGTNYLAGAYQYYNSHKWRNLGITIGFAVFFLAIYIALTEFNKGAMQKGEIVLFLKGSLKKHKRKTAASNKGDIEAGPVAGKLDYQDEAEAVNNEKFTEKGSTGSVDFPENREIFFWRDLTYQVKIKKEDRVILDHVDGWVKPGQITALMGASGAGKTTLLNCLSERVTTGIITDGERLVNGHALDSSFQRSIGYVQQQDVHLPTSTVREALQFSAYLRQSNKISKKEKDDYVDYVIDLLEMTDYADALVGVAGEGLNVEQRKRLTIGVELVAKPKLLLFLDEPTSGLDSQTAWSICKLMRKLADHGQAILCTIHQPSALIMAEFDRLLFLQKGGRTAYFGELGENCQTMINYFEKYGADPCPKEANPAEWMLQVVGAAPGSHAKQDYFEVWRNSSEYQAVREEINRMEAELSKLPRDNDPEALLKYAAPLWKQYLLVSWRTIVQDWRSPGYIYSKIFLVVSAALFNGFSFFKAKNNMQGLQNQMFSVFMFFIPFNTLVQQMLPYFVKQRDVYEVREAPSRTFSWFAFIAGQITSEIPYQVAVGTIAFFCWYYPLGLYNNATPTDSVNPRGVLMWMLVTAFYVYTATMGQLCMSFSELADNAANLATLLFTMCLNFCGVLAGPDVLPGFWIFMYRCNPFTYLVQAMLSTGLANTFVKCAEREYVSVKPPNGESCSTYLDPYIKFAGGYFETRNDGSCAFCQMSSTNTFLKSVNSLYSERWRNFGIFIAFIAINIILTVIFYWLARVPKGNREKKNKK
Assay details: Displacement of [125I]IAAP from GFP-tagged Candida albicans CDR1 expressed in Saccharomyces cerevisiae
pIC50: −log10 of the molar value.

[
  {
    "Test smiles": "COc1cc(/C=C/C(=O)CC(=O)/C=C/c2ccc(O)c(OC)c2)ccc1O",
    "pIC50": 4.85
  }
]

----------
System: Saccharomyces cerevisiae
Assay details: Toxicity against CDR1-expressing Saccharomyces cerevisiae AD after 48 hrs by MTT assay
pIC50: −log10 of the molar value.

[
  {
    "Test smiles": "COc1cc(/C=C/C(=O)CC(=O)/C=C/c2ccc(O)c(OC)c2)ccc1O",
    "pIC50": 3.31
  }
]
